Hey, just so you know, these numbers are from ChEMBL document CHEMBL3621191.

// reported pEC50 for each item listed
Test system: Human immunodeficiency virus 1
TEST DETAILS: Antiviral activity against HIV1 expressing reverse transcriptase F227L + V106A mutant
Assay type: functional, organism-based
Quick note: pEC50 values are minus log10 of concentrations in mol/L.

- COMPOUND STRING: "Cc1cc(C#N)cc(C)c1Oc1nc(Nc2ccc(C#N)cc2)nc(N)c1Br"
  pEC50: 7.83

Shifting focus to the molecule that follows.
Name the reported pEC50 value associated with the molecule Cc1cc(C#N)cc(C)c1Oc1ccnc(S(=O)(=O)CC(=O)Nc2ccc(F)cc2)n1
5.83
